# system name: T1, human ANGPTL8 expressed with C-terminal mouse IgG2a Fc tag (hANGPTL8-mFc; SEQ ID NO: 340) (human)
# T1 construct: also called Angiopoietin-like protein 8
# T1 chain: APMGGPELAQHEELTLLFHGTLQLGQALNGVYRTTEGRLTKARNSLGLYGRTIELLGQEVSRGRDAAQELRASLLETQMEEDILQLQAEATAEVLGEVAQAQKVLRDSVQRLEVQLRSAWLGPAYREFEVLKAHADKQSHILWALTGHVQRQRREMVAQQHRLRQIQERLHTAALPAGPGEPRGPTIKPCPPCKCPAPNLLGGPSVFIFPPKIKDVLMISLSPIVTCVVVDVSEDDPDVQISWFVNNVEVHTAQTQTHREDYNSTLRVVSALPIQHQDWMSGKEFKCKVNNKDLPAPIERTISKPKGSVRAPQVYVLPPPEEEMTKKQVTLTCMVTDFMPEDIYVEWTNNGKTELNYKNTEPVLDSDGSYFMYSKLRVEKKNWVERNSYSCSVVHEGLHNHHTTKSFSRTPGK
# protocol details: BLI Octet, captured antigen, 100 nM mAb, 25C
Property: mAb Binding Response (nm); scope: individual binders
Response body: numeric value in nm, unit text excluded.

| binder | units symbol | mAb Binding Response (nm) |
| --- | --- | --- |
| H4H15314P2 (antibody, human IgG4, V domains shown, H4H prefix: human IgG4 Fc) VH: QVQLVQSGAEVKKPGASVKVSCKASGYTFTSYDINWVRQATGQGLEWMGWMNPNGDNTGYAQKFQGRVTMTGDTSISTAYMELSSLRSEDTAVYYCAREGIWGFDPWGQGTLVTVSS VL: DIQMTQSPSSLSASVGDRVTITCRASQDIRNDLGWYQQKPGKAPKRLIYAASSLQSGVPSRFSGSGSGTEFTLTISSLQPEDFATFYCLQHNTFPRTFGQGTKVEIK | nm | 0.04 |

Q: I would be grateful if you could share the reported mAb Binding Response (nm) for H4H15319P (antibody, human IgG4, V domains shown, H4H prefix: human IgG4 Fc) VH: EVQLVESGGGVVRPGGSLRLSCAASGFTVDDYDMSWVRQTPGKGLEWISGINWNGGNTGYADSVKGRFIISRDSAKNSLFLQMNSLRAEDTALYHCWGAIGAFDIWGQGTMVTVSS VL: DIVMTQSPLSSPVTLGQPASISCRSSQSLVHSDGGTYLSWLQQRPGQPPRLLIYKIFNRFSGVPDRFSGSGAGTDFTLRISRVEAEDVGVYYCMQTTQFPLTFGGGTKVEIK .
Result: 0.22
